Origin of values: the DeepSol protein solubility set

Test: soluble on expression in E. coli; label from the status in PepcDB or PDB records
measurement.kind: soluble on expression in E. coli

Reference set (5 entries):
- sequence.code: "MGSDKIHHHHHHMTPEKIEQIFRSFKEKKIAVIGDVMIDKYIFGHVSRISPEYPVPVVDVNRESSRLGGAANVAVNIHALGAEALLIGVTGDDTERRNLEALMTEHGLNPAMLAADSTRPTTCKTRILSQNHHITRVDYESRTPVDAELEKRLLGMFMEIANAVDAVVLEDYNKGVLTPSLIVSLIAACRERNKPVLVDPKLKGFFSYGGCSVFKPNLSELAASLGIPVANDDREVEQACLLLGEKLTVESLVVTRSEKGMTVYDGSFTHIPALSLDVADVSGAGDTVIGTLALGLASGLDLVTSTRIANLAANTVCQEVGAVPVRPDKLFSACLAHLQ"
  soluble on expression in E. coli: "not soluble"
- sequence.code: "MLKRLISIPTVAPQGDHYGEAAELLARELESLGFETVVERVPSEYQREKCRHASDNPRFIVYGRRGEGPALHFNGHYDVVPGGPGWSVTEPFKPVVKDGKLYGRGAIDMKGGIAAALGAFKALHLSGAWPQGLRVEAAFVPDEEIGGECGTGYLVNGMGVTPEYVVLPEPSGLEKPWHGHRGILWMKVRVKGRTAHASTPWHGRNAFLLASAIALDLQQALASMYAGRRSRHRIEPEESAKPTVSLGGEAGVTGGGKTNQVPGEFYFTVDRRLIPEETVSQARDELLGVLTWLSVKHGAEVEAEEVISAEPAINEPGELYEALREAASQSGRSIGEPVVCPGGLDMWYYTVKGSKALAYGPRGELAHAPDEHIDLGELRFLVETFARLPITLAVALQRRT"
  soluble on expression in E. coli: "soluble"
- sequence.code: "MNQLNWKDVTPSFEQYEDILKSASSLPKKKFVELQPRLLATVERFKKIKGLTRVLVINCADNTVYRKFICDVVTDGLEPTIMTESLDAKLLFDRYSVDLKGDVVVEAGLLSKAN"
  soluble on expression in E. coli: "not soluble"
- sequence.code: "MPDHLQPTLFQDAGKTQASDTFQELLASIAARPKYLPDWPESHRALPNEILRSALFNCRNRNLPRMFLKEVEIAVIGDGQVIYRGEELRQDDELVWMHLMHLIKKSPLGECVEFTPYSFIKALGWPIKGQNYDRLRNCLSRMQATALRIQSKRLHSFVSISLIQKFLSRNERNESLTRWQVWVGKEMQLLFDEEFLTRVMWETRRSLPDGIASKLFGYWASHRKPYPVKVETLLKLCGSGMQTKHFKIELKRALDLLKQSGFLEAWELKDELVVVVRRH"
  soluble on expression in E. coli: "not soluble"
- sequence.code: "MMDLHTHTVYSDGIGLIRDNVAWAEKRGLKIVGISDHIHFFTPSRFSAYINEINVIKEESEIVVLAGIEANILENGPDITDEFRKKLDYAIASVHEWFGRNGTHEYINYVKKAIMDDNVDIIGHFGNSFPWIGYPTREEIDEILDLAEAYGKAFEISARYKVPDLEFIRECVKRGIKLSLATDAHRPEDVGKVSWSLKMLEKAGGTKEDLIFSEYL"
  soluble on expression in E. coli: "soluble"

Query: Need soluble on expression in E. coli, item "MKDESERVSNRLPMDESREHLMVKVARMTYQQELNQSEIAAETGLNRWQVSRLLQEARDLGIVRIEIIPRSPRRPDLETALQQTFNLNDSVVVSSDGEQAQSLDTVAQAAGQYIASIKSNGATVGVSWGRTMGAVAHWLPLQWSDGGEVVQINGTVAPISGVTYHNDVAGIFARKAGARLVPLPVPAIVGQRVTREVLERDRIVADVLTKARSAQILIFSCGSLSEESVLVRSGNILRDELATLLSKGAVGDVLGRFIDVNGEIVDAELDARTIGLSLSDLKTSGKAIGIAAGSEKFNVVLGVLRAGLVNVLVTDEATATFALEHA"
Reply: not soluble
